# tested system: murine IL-21R expressed on cells (murine, UniProt Q9JHX3 20-529)
# Sequence (Q9JHX3 20-529 limits assumed): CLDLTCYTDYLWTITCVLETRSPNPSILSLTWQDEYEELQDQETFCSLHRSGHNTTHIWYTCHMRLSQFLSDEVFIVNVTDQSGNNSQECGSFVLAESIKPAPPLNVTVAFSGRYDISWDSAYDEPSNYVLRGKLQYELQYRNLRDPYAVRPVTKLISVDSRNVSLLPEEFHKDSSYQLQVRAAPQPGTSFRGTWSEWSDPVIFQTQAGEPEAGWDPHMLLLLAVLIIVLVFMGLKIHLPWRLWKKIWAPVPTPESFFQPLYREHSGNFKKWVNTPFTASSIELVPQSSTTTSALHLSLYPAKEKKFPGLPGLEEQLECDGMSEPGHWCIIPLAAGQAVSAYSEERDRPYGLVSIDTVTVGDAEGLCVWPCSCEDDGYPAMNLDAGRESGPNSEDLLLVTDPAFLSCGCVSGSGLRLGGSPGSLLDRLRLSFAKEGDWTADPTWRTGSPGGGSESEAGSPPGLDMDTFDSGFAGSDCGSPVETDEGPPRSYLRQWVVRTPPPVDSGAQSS
# protocol description: cell-based or functional assay
measured metric: IC50, Murine IL-21R-BaF3 Neutralization Assay (nM)
// return numeric value only (unit: nM, not printed)

Below, each entry is followed by its recorded IC50, Murine IL-21R-BaF3 Neutralization Assay result.
{"binder": "scFv H5 (scFv) scFv: QVQLQESGPGLVKTSETLSLTCAVSGYSISSGYYWGWIRQPPGKGLEWIGSISHTGNTYYNPPLKSRVTISVDTSKNQFSLKLSSVTAADTAVYYCARFLGFGRPEYWGKGTLVTVSSGGGGSGGGGSGGGGSALSSELTQDPPVSVALGQTVTLTCQGDSLRTYYASWYQQKSGQAPILLLYGKHKRPSGIPDRFSGSTSGDTASLTITGAQAEDEADYYCNSRDSSGNPHVLFGGGTQLTVL", "unit": "nM", "reported measurement": 53.7}
{"binder": "scFv L2 (scFv) scFv: QVQLQESGPGLVKTSETLSLTCAVSGYSISSGYYWGWIRQPPGKGLEWIGSISHTGNTYYNPPLKSRVTISVDTSKNQFSLKLSSVTAADTAVYYCARGGGISRPEYWGKGTLVTVSSGGGGSGGGGSGGGGSALSSELTQDPPVSVALGQTVTLTCQGDSLRTYYASWYQQKSGQAPILLLYGKHKRPSGIPDRFSGSTSGDTASLTITGAQAEDEADYYCVARSVVGNPHVLFGGGTQLTVL", "unit": "nM", "reported measurement": 2.41}
{"binder": "scFv H3 (scFv) scFv: QVQLQESGPGLVKTSETLSLTCAVSGYSISSGYYWGWIRQPPGKGLEWIGSISHTGNTYYNPPLKSRVTISVDTSKNQFSLKLSSVTAADTAVYYCARFMGFGRPEYWGKGTLVTVSSGGGGSGGGGSGGGGSALSSELTQDPPVSVALGQTVTLTCQGDSLRTYYASWYQQKSGQAPILLLYGKHKRPSGIPDRFSGSTSGDTASLTITGAQAEDEADYYCNSRDSSGNPHVLFGGGTQLTVL", "unit": "nM", "reported measurement": 25.7}

Req: What IC50, Murine IL-21R-BaF3 Neutralization Assay value was documented for this binder, scFv L24 (scFv) scFv: QVQLQESGPGLVKTSETLSLTCAVSGYSISSGYYWGWIRQPPGKGLEWIGSISHTGNTYYNPPLKSRVTISVDTSKNQFSLKLSSVTAADTAVYYCARGGGISRPEYWGKGTLVTVSSGGGGSGGGGSGGGGSALSSELTQDPPVSVALGQTVTLTCQGDSLRTYYASWYQQKSGQAPILLLYGKHKRPSGIPDRFSGSTSGDTASLTITGAQAEDEADYYCIARSNKGNPHVLFGGGTQLTVL ?
Resp: 3.73
